System: MOLM-13
Test: Antiproliferative activity against human MOLM-13 cells incubated for 3 days by CCK8 assay
Type: functional, cell-based
Details: MOLM-13, 72 h
Value kind: IC50 (nM)

The following compounds have reported results that may help.
Cc1sc2c(c1C)C(c1ccc(Cl)cc1)=N[C@@H](CC(=O)N1CCC(CN3CCN(c4ccc5c(c4)C(=O)N(C4CCC(=O)NC4=O)C5=O)CC3)CC1)c1nnc(C)n1-2 (stereo not given in full) | 61.4
Cc1sc2c(c1C)C(c1ccc(Cl)cc1)=N[C@@H](CC(=O)N1CC(N3CCN(c4ccc5c(c4)C(=O)N(C4CCC(=O)NC4=O)C5=O)CC3)C1)c1nnc(C)n1-2 (stereo not given in full) | 74.2

A: Cc1sc2c(c1C)C(c1ccc(Cl)cc1)=N[C@@H](CC(=O)N1CC(CN3CCN(c4ccc5c(c4)C(=O)N(C4CCC(=O)NC4=O)C5=O)CC3)C1)c1nnc(C)n1-2 (stereo not given in full)
B: Cc1sc2c(c1C)C(c1ccc(Cl)cc1)=N[C@@H](CC(=O)NCCCCNc1cccc3c1C(=O)N(C1CCC(=O)NC1=O)C3=O)c1nnc(C)n1-2 (stereo not given in full)
C: Cc1sc2c(c1C)C(c1ccc(Cl)cc1)=N[C@@H](CC(=O)N1CCN(C3CN(c4ccc5c(c4)C(=O)N(C4CCC(=O)NC4=O)C5=O)C3)CC1)c1nnc(C)n1-2 (stereo not given in full)
## Input Ranking field: IC50; order: falling. # format: label list in the order the request specifies
## Output B, A, C
